# protocol_summary: Dissociation constant from fluorescence titration with glucose
# Type: binding
# measurement_setup: pH 7.5 phosphate buffer
readout_name: Kd (mM)

(P) Cc1ccc2c(ccc[n+]2Cc2ccccc2B(O)O)c1.[Br-]
(Q) COc1ccc2c(ccc[n+]2Cc2ccccc2B(O)O)c1.[Br-]
query: Just tell me: smaller Kd value, P or Q ? Please indicate the selected item by its label.
result: Q
(Q: 49.5 mM, P: 100 mM)

###

# protocol_summary: Spectral properties in water (absorption, emission, quantum yield, lifetime)
# Type: physicochemical
readout_name: λem (max) (nm)

Cc1ccc2c(ccc[n+]2Cc2ccccc2B(O)O)c1.[Br-]    427
COc1ccc2c(ccc[n+]2Cc2ccccc2)c1 [BMOQ, N-benzyl-6-methoxyquinolinium bromide]    453
Cc1ccc2c(ccc[n+]2Cc2ccccc2)c1 [BMQ, N-benzyl-6-methylquinolinium bromide]    427
COc1ccc2c(ccc[n+]2Cc2ccccc2B(O)O)c1.[Br-]    450

###

# protocol_summary: pKa from normalized fluorescence intensity versus pH, with and without 100 mM sugar
# Format: physicochemical
# measurement_setup: buffer with 100 mM glucose, 100 mM glucose; read-out: pKa (buffer + glucose)
readout_name: pKa

Cc1ccc2c(ccc[n+]2Cc2ccccc2B(O)O)c1.[Br-] [o-BMQBA]    6.18
COc1ccc2c(ccc[n+]2Cc2ccccc2B(O)O)c1.[Br-] [o-BMOQBA]    6.62

###

# protocol_summary: pKa from normalized fluorescence intensity versus pH, with and without 100 mM sugar
# Format: physicochemical
# measurement_setup: buffer without sugar, absence of sugar; read-out: pKa (buffer)
readout_name: pKa

COc1ccc2c(ccc[n+]2Cc2ccccc2B(O)O)c1.[Br-]    7.9
Cc1ccc2c(ccc[n+]2Cc2ccccc2B(O)O)c1.[Br-]    6.92

###

# protocol_summary: Spectral properties in water (absorption, emission, quantum yield, lifetime)
# Type: physicochemical
# measurement_setup: relative to SPQ (φf=0.53 in water)
readout_name: φf (quantum yield)

Cc1ccc2c(ccc[n+]2Cc2ccccc2B(O)O)c1.[Br-] [o-BMQBA]    0.043
COc1ccc2c(ccc[n+]2Cc2ccccc2B(O)O)c1.[Br-] [o-BMOQBA]    0.46

(I) COc1ccc2c(ccc[n+]2Cc2ccccc2)c1 [BMOQ, N-benzyl-6-methoxyquinolinium bromide]
(II) Cc1ccc2c(ccc[n+]2Cc2ccccc2)c1 [BMQ, N-benzyl-6-methylquinolinium bromide]
query: Just tell me: smaller φf (quantum yield) value, I or II ? Please indicate the selected item by its label.
result: II
(II: 0.045, I: 0.54)
